ASSAYED TARGET: T1, 4H2859-bH
T1 chain: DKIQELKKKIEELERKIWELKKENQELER
MEASUREMENT DESCRIPTION: two-hybrid library CCNG1;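 further: natural log of median RNA to DNA barcode read ratio; higher means stronger binding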
MEASUREMENT NAME: interaction score

Consider the following illustrative entries.
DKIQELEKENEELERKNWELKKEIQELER [4H2233-bH]
-0.442
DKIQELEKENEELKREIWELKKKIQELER [4H2253-bH]
0.651
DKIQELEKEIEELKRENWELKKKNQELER [4H2143-bH]
-0.954
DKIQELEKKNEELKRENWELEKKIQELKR [4H2518-bH]
-0.0624
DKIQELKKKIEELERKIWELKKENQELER [4H2859-bH]
1.11
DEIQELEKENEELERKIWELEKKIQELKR [4H166-bH]
1.65
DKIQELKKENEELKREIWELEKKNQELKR [4H2760-bH]
0.64
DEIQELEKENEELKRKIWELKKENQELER [4H235-bH]
0.589
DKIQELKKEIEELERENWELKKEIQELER [4H2585-bH]
0.965
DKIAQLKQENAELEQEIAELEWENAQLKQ [4H2692-bA]
-0.0963

(I) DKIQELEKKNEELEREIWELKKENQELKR [4H2444-bH]
(II) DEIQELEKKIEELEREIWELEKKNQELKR [4H264-bH]
Quick one: lower interaction score, I or II ? Identify your pick by its label.
I
